The following compounds each carry a recorded AC50 for UniProtKB P10635.
Sequence (P10635 whole entry): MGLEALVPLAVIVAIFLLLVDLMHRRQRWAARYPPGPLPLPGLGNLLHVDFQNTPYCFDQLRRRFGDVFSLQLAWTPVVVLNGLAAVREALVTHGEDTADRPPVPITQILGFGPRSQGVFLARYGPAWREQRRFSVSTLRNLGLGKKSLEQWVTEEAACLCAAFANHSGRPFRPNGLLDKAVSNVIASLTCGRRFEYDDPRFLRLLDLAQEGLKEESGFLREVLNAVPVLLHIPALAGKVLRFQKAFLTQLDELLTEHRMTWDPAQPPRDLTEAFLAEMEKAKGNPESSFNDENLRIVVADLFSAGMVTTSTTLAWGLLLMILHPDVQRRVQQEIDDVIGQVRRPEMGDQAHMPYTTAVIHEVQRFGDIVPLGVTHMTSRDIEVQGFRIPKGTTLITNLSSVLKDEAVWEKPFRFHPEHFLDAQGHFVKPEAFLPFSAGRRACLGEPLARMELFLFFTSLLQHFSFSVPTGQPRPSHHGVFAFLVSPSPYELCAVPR

Example cases with answers are listed next.
Write down the reported AC50 of COC(=O)c1ccc(C23CC2(C(NP(=O)(c2ccccc2)c2ccccc2)c2ccccc2)C3)cc1 (configuration not stated) , test system: UniProtKB P10635.
31.6 µM (inconclusive)

Write down the reported AC50 of CCC(=O)Nc1cc(-c2nn(C)c(=O)c3ccccc23)ccc1N1CCCCC1 , test system: UniProtKB P10635.
11.2 µM (inconclusive)

Write down the reported AC50 of COc1ccc2[nH]c(SCC(=O)c3ccco3)nc2c1 , test system: UniProtKB P10635.
17.8 µM (inconclusive)

Write down the reported AC50 of Cn1c(C[C@@H](O)c2nc3ccccc3n2C)nc2ccccc21 , test system: UniProtKB P10635.
2.51 µM (inconclusive)

Write down the reported AC50 of CC[N+](CC)(CCNC(=O)C(=O)NCC[N+](CC)(CC)Cc1ccccc1Cl)Cc1ccccc1Cl , test system: UniProtKB P10635.
39.8 µM (inconclusive)

Hey, can you go through the list below and give me AC50 for every item?
1. CCCCCCCCCCCCCC(=O)O[C@H](CC(=O)[O-])C[N+](C)(C)C
2. COC(=O)N1CCC2(CCCN(c3ccccn3)C2)CC1
3. CCc1nnc(S)n1/N=C/c1ccc2c(c1)OCO2
4. Cc1cc2nc3c(=O)[nH]c(=O)nc-3n(CC(O)C(O)C(O)CO)c2cc1C (configuration not stated)
5. CN(C)c1ncc2nc(CCc3ccccc3)c(=O)n(-c3ccccc3)c2n1

1. 31.6 µM (inconclusive)
2. 39.8 µM (inconclusive)
3. 22.4 µM (inconclusive)
4. 12.6 µM (inconclusive)
5. 2.51 µM (inconclusive)

====

test_target: Small ubiquitin-related modifier 1 (Homo sapiens, UniProt P63165)
Sequence (P63165 whole entry): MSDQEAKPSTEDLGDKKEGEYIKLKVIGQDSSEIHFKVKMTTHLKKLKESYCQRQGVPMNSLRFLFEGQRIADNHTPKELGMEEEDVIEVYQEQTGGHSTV
protocol_summary: inhibitors of SUMO1 partner interactions, dose response, biochemical, FRET (AID 624383)
Assay type: functional
measurement_parameters: read-out: IC50_Mean
The source made the active and inactive calls.
Please reply with one of these outcomes: active, inactive

For CC1=C(C(=O)OC(C)C)C(c2ccc(Cl)cc2)n2c(s/c(=C\c3ccc(OCC(=O)O)cc3)c2=O)=N1 (stereo not given) , what call appears in the results of this test?
active

For CCc1ccccc1Nc1nn2c(=O)c3ccc(C(=O)NCc4ccccn4)cc3nc2s1 , what call appears in the results of this test?
active

For CCOc1ccc(C=NNc2ccc(S(=O)(=O)Nc3ccccc3C(=O)O)cc2[N+](=O)[O-])cc1 , what call appears in the results of this test?
inactive

For O=C(Nc1ccc(Nc2ccncc2)cc1)c1ccc(Nc2ccnc3ccc([N+](=O)[O-])cc23)cc1 , what call appears in the results of this test?
active

Query compound follows.
For O=C(CSc1nc(-c2ccccc2)nc2c1Cc1ccccc1O2)Nc1ccc(C(=O)O)cc1 , what call appears in the results of this test?
active

====

Give measured EC50 for each item. Keep answers brief.
test_target: RNA-binding protein pos-1 (Caenorhabditis elegans, UniProt G5EF15)
Sequence (G5EF15 whole entry): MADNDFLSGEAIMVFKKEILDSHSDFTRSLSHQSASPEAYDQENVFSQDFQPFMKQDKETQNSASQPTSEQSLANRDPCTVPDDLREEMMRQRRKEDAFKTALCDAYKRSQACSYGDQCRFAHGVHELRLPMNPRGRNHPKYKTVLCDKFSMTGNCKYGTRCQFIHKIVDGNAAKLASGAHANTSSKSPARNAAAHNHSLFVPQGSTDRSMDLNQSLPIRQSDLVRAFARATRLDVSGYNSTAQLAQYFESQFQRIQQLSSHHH
protocol_summary: inhibitors of POS-1/mex-3 RNA binding, dose response, biochemical, fluorescence polarization (AID 1964);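 also: purified POS-1 fused to maltose binding protein made in E. coli; potency of compounds blocking POS-1 binding to fluorescent RNA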
The source made the active and inactive calls.

Example cases with answers are listed next.
Sample O=C1C(Cl)=C(Nc2ccccc2O)C(=O)N1c1ccccc1 — what was its EC50?
> 300 µM (not active)

Sample Cc1nc2ccccc2c2oc(C(=O)Nc3ccc4c(c3)OCCO4)cc12 — what was its EC50?
16.6 µM (active)

Sample NC(=O)[C@@H]1CCCN1Cc1c(C(=O)N2CCc3ccccc3C2)nc2ccc(Cl)cn12 — what was its EC50?
61.7 µM (active)

Hey, can you go through the list below and give me EC50 for every item?
1. CCCCN(C(=O)c1ccc([N+](=O)[O-])o1)c1c(N)n(CC(C)C)c(=O)[nH]c1=O
2. COc1cc(C2NC(S)=NC(C)=C2C(=O)OC(C)C)ccc1OC(C)C (stereo not drawn)

["18.7 µM (active)", "> 300 µM (not active)"]

Hey, can you go through the list below and give me EC50 for every item?
1. Cc1cc(O)nc(N/N=C/c2ccc(O)c(O)c2)n1
2. O=C1NC(=O)N(c2ccc(Br)cc2)C(=O)/C1=C/NCCN1CCCCC1
3. COC(=O)CCCC1=CC2=CC(=O)C(C)(OC(=O)c3cccs3)C(=O)C2=CO1 (stereo not drawn)
4. CCCCc1cn([C@@H](CCCCN)C(=O)N2CCNCC2)nn1
5. COc1ccc(/C=C2\CCCC(C(=O)C(F)(F)F)=C2O)cc1
6. COC(=O)CCC(=O)OC1(C)C(=O)C=C2C=C(c3ccsc3)OC=C2C1=O (stereo not drawn)

99.3 µM (active)
> 300 µM (not active)
14 µM (active)
31.9 µM (active)
36 µM (inconclusive)
36.8 µM (active)

Hey, can you go through the list below and give me EC50 for every item?
1. O=C(/C=C/c1ccc(O)c(O)c1)OC(Cc1ccc(O)c(O)c1)C(=O)O (stereo not drawn)
2. OCCOc1ccc(C2=NCCO2)cc1

["13.6 µM (active)", "> 300 µM (not active)"]

====

test_target: Protein skinhead-1 (Caenorhabditis elegans, UniProt P34707)
Sequence (P34707 whole entry): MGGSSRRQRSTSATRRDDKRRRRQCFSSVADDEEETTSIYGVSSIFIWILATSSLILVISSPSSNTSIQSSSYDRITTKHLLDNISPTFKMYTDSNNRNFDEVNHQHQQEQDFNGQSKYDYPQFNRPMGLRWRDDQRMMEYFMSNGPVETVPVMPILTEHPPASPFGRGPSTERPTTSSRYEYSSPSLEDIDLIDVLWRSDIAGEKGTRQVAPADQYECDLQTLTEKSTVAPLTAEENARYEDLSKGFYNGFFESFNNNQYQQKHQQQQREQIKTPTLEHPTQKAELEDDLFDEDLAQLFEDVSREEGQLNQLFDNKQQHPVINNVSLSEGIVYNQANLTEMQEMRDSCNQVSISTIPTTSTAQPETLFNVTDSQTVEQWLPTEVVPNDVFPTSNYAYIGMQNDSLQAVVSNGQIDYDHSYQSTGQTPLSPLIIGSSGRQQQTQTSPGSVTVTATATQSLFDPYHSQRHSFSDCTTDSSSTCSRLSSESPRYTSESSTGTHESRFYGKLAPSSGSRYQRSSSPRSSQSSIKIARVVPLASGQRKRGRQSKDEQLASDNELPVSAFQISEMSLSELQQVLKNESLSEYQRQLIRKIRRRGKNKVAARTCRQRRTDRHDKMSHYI
Format: functional
Calls of active or inactive are those of the source.
Please reply with one of these outcomes: active, inactive

Completed entries (count: 4):
For CC1=C/C(=C(/c2cc(C)c(O)c(Br)c2)c2ccccc2S(=O)(=O)O)C=C(Br)C1=O , what call appears in the results of this test?
active

For O=C(c1nc[nH]c1C(=O)N1CCc2ccccc2C1)N1CCc2ccccc2C1 , what call appears in the results of this test?
inactive

For CSc1cccc(NC(=O)c2cccc3cccnc23)c1 , what call appears in the results of this test?
active

For O=C(CN1CCOCC1)c1cccc2ccccc12 , what call appears in the results of this test?
inactive

New cases:
For CCN1C(=O)/C(=C2\C=Cc3cc(C)ccc3N2CC)OC1=S , what call appears in the results of this test?
inactive

For CCCCCCn1c(N2CCC(C(N)=O)CC2)nc2c1c(=O)n(C)c(=O)n2C , what call appears in the results of this test?
inactive

====

Give measured AC50 for each item. Keep answers brief.
protocol_summary: Luminescence Cell-Based Dose Retest to Confirm Inhibitors of Cancer Stem Cells. [Related pubchem assays (depositor defined):AID2717, AID2721]
Assay type: functional
measurement_parameters: Homo sapiens
Calls of active or inactive are those of the source.

Example cases with answers are listed next.
Sample CC(=O)c1ccc(N2CCC(c3cc(-c4ccc(Cl)cc4Cl)[nH]n3)CC2)c([N+](=O)[O-])c1 — what was its AC50?
2.19 µM (active)

Sample COC(=O)C1=C(C)N(Cc2ccccc2)C(NCc2cccc(Cl)c2)=N[C@H]1c1cccc(F)c1 — what was its AC50?
3.48 µM (active)

Sample Cc1cc(NCCCn2ccnc2)n2nc(C)c(-c3ccc(Cl)cc3)c2n1 — what was its AC50?
6.35 µM (active)

The record that follows has no AC50 shown yet.
Sample O=C(COc1ccc(Cl)cc1Cl)N/N=C/c1ccc[nH]1 — what was its AC50?
1.92 µM (active)
